These records show Ki for Disintegrin and metalloproteinase domain-containing protein 10 (Homo sapiens).

smiles_structure | Ki
O=C(NO)[C@H]1C[C@]1(Cc1ccc(OCc2cc(-c3ccccc3)nc3ccccc23)cc1)C(=O)N1CCC[C@H]1CO | > 10 mM
Cc1cc(COc2ccc(C[C@]3(C(N)=O)C[C@@H]3C(=O)NO)cc2)c2ccccc2n1 | > 10 mM

----------
molecular target: Stromelysin-1 (Homo sapiens, UniProt P08254)
Sequence (P08254 whole entry): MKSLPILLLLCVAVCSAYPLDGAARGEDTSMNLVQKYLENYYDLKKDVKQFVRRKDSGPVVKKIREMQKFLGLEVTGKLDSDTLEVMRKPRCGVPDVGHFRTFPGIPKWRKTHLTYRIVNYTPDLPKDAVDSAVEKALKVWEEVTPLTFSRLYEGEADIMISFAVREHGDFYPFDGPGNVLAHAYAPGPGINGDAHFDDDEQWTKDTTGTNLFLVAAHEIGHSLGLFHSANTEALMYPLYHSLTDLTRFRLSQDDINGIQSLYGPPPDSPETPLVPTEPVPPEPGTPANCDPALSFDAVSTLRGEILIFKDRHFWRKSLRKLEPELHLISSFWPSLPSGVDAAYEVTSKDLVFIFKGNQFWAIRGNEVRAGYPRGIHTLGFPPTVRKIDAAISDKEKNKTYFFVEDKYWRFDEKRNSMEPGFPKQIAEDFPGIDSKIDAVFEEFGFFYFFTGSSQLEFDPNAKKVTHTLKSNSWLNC
measured_metric: Ki (µM)

smiles_structure | scale_unit | result
Cc1cc(COc2ccc(C[C@]3(C(N)=O)C[C@@H]3C(=O)NO)cc2)c2ccccc2n1 | µM | 58
